Test: AUC (0 to 24h) in ICR mouse at 150 mg/kg, po measured after 24 hrs by LC-MS/MS analysis
Format: ADME, organism-based
Set-up: route oral, dose 150 mg/kg, time 24 hrs
Conditions: in vivo
Measurement Name: AUC(0-t) at 24 h (ng·h/mL)
Answer in ng·h/mL, number only, no unit symbol.

response.value for `COC(=O)/C=C/c1ccncc1-c1ccc2ccccc2c1` (field: AUC(0-t) at 24 h) = 153

* * *

Test: Half-life in ICR mouse at 150 mg/kg, po measured after 24 hrs by LC-MS/MS analysis
Type: ADME, organism-based
Details: in vivo
Measurement Name: half-life (h)
Number only, in h; omit the unit.

Lab book: half-life of `COC(=O)/C=C/c1ccncc1-c1ccc2ccccc2c1` noted as 3.93

* * *

Experiment: Antiproliferative activity against human KB-VIN cells assessed as inhibition of cell growth measured after 72 hrs by SRB assay
Type: functional
Details: KBVIN
Parameter GI50: see the listing below.

Form field GI50, entry `O=C(/C=C/c1ccncc1-c1ccc2ccccc2c1)N1CCOCC1` : 8.48 µM

GET /value?item= `CNC(=O)/C=C/c1ccncc1-c1ccc2ccccc2c1` &field=GI50 returns 7.66 µM

Recorded GI50 (molecule `O=C(/C=C/c1ccncc1-c1ccc2ccccc2c1)NC1CC1` ): 4.77 µM

# GI50 (molecule: `O=C(O)/C=C/c1ccncc1-c1ccc2ccccc2c1` ) is > 10 µM

Form field GI50, entry `COC(=O)/C=C/c1ccncc1-c1ccc2ccccc2c1` : 5.46 µM

Documented GI50 of `CCOC(=O)/C=C/c1ccncc1-c1ccc2c(ccn2C)c1` : 8.19 µM

response.value for `NNC(=O)CCc1ccncc1-c1ccc2ccccc2c1` (field: GI50) = > 10 µM

Recorded result, `CCOC(=O)/C=C/c1ccncc1-c1ccc2[nH]ccc2c1` , GI50: > 10 µM

Form field GI50, entry `COC1CN(C(=O)/C=C/c2ccncc2-c2ccc3ccccc3c2)C1` : > 10 µM

Short answer for `CNC(=O)/C=C/c1ccncc1-c1ccc2[nH]ccc2c1` : GI50 was > 10 µM

***
What the record says about `NC(=O)/C=C/c1ccncc1-c1ccc2ccccc2c1` : GI50 is > 10 µM

Record summary for `CCOC(=O)/C=C/c1ccncc1-c1ccc2ccccc2c1` : reported GI50 = 8.89 µM

* * *

Test system: MCF7
Assay: Antiproliferative activity against human MCF7 cells assessed as inhibition of cell growth measured after 72 hrs by SRB assay
Assay type: functional
Measurement Name: GI50

Known results for molecules:
// GI50 value for `CCOC(=O)/C=C/c1ccncc1-c1ccc2ccccc2c1` : 8.32 µM

Summary for this molecule, `O=C(/C=C/c1ccncc1-c1ccc2ccccc2c1)N1CCOCC1` : GI50 is > 10 µM

According to the records, this molecule `CCOC(=O)/C=C/c1ccncc1-c1ccc2c(ccn2C)c1` displays GI50 of 8.67 µM

Entry `O=C(O)/C=C/c1ccncc1-c1ccc2[nH]ccc2c1` ; GI50 = > 10 µM

molecule `CNC(=O)/C=C/c1ccncc1-c1ccc2[nH]ccc2c1` , GI50 observed: > 10 µM

The molecule listed as `O=C(O)CCc1ccncc1-c1ccc2ccccc2c1` shows GI50 equal to > 10 µM

Record `CNC(=O)/C=C/c1ccncc1-c1ccc2c(ccn2C)c1` . Reported GI50: 7.12 µM

Per the record, `O=C(O)/C=C/c1ccncc1-c1ccc2cc[nH]c2c1` has GI50 of > 10 µM

Record summary for `CNC(=O)/C=C/c1ccncc1-c1ccc2ccccc2c1` : reported GI50 = 9.34 µM

Given item `NC(=O)/C=C/c1ccncc1-c1ccc2ccccc2c1` , the value recorded as its GI50 is > 10 µM

***
Reported GI50 for `O=C(CCc1ccncc1-c1ccc2ccccc2c1)N1CCOCC1` was > 10 µM

Data point: `CCOC(=O)/C=C/c1ccncc1-c1ccc2[nH]ccc2c1` ; GI50 = > 10 µM

* * *

Biological target: CDK8/Cyclin C (Homo sapiens)
Sequence (P49336 whole entry): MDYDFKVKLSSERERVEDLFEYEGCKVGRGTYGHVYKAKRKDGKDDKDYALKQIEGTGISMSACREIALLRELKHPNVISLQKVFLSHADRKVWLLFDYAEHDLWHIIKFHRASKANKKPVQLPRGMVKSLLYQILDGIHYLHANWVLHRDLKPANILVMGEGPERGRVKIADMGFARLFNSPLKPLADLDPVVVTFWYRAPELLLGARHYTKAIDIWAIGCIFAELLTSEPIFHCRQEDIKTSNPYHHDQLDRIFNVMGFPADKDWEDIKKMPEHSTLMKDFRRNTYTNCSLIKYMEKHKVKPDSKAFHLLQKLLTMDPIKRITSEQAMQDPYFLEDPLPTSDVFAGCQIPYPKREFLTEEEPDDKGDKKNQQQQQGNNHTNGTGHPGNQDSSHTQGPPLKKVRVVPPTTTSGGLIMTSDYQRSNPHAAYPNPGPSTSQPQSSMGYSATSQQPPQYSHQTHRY
Sequence (P24863 whole entry, further chain): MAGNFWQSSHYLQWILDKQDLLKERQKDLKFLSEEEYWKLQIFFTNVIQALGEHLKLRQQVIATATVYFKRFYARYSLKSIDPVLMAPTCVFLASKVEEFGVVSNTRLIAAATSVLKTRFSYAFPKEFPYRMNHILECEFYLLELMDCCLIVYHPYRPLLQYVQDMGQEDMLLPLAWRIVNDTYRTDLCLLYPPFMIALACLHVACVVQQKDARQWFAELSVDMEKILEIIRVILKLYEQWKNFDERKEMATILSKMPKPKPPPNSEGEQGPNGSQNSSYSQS
Test: Inhibition of CDK8/Cyclin C (unknown origin) measured after 1 hr by plate reader assay
Measurement Name: pIC50
Scale for pIC50: -log10 of concentration given in mol/L; no unit attached.

For this molecule ( `O=C(O)CCc1ccncc1-c1ccc2ccccc2c1` ), measured pIC50 is 7.30

***
pIC50 recorded for this molecule, `O=C(/C=C/c1ccncc1-c1ccc2cc[nH]c2c1)N1CCOCC1` , is 7.36

Lab note: `O=C(CCc1ccncc1-c1ccc2ccccc2c1)N1CCOCC1` gave pIC50 of 7.34

Documented pIC50 of `CCOC(=O)/C=C/c1ccncc1-c1ccc2c(cnn2C)c1` : 6.99

get_value(item= `CCOC(=O)/C=C/c1ccncc1-c1ccc2c(ccn2C)c1` , readout=pIC50) returns 6.84

Recorded result, `Cn1ccc2cc(-c3cnccc3/C=C/C(=O)N3CCOCC3)ccc21` , pIC50: 6.61

* * *

Test: Cmax in ICR mouse at 150 mg/kg, po measured after 24 hrs by LC-MS/MS analysis
Assay type: ADME, organism-based
Set-up: route oral, time 24 hrs, dose 150 mg/kg
Settings: in vivo
Measurement Name: Cmax (ng/mL)
Give just the number in ng/mL; leave the unit off.

Query `COC(=O)/C=C/c1ccncc1-c1ccc2ccccc2c1` yields Cmax of 46.6

* * *

Reported GI50 values are given for each entry in this list.
Test: Antiproliferative activity against human KB-VIN cells assessed as inhibition of cell growth measured after 72 hrs by SRB assay
Assay type: functional
Conditions: KBVIN

Entry `CNC(=O)/C=C/c1ccncc1-c1ccc2c(ccn2C)c1` — recorded GI50 = 5.69 µM

GI50 measured on `CNC(=O)/C=C/c1ccncc1-c1ccc2c(cnn2C)c1` = > 10 µM

Next:
GI50 recorded for this molecule, `O=C(O)/C=C/c1ccncc1-c1ccc2cc[nH]c2c1` , is > 10 µM

get_value(item= `Cn1ccc2cc(-c3cnccc3/C=C/C(=O)O)ccc21` , readout=GI50) returns > 10 µM

Reported GI50 ( `O=C(O)CCc1ccncc1-c1ccc2ccccc2c1` ) = > 10 µM

Record summary for `Cn1ncc2cc(-c3cnccc3/C=C/C(=O)O)ccc21` : reported GI50 = > 10 µM

Short answer for `CCOC(=O)/C=C/c1ccncc1-c1ccc2c(cnn2C)c1` : GI50 was > 10 µM

// GI50 value for `CN(C)C(=O)/C=C/c1ccncc1-c1ccc2ccccc2c1` : 4.93 µM

So for `O=C(CCc1ccncc1-c1ccc2ccccc2c1)N1CCOCC1` , the logged GI50 turned out to be > 10 µM

For record `CCOC(=O)/C=C/c1ccncc1-c1ccc2cc[nH]c2c1` the listed GI50 is 7.7 µM

The molecule `CNC(=O)c1cc(Oc2ccc(NC(=O)Nc3ccc(Cl)c(C(F)(F)F)c3)cc2)ccn1` showed GI50 equal to 5.36 µM

* * *

Molecular target: CDK8/Cyclin C (Homo sapiens) (UniProt P49336+P24863)
Test: Inhibition of CDK8/Cyclin C (unknown origin) at 10 uM measured after 1 hr by plate reader assay relative to control
Format: protein-complex assay
Parameter: inhibition. Scope: all listed entries.
Express your answer in %, writing the number without its unit.

Solved entries:
Per the records, this molecule ( `O=C(/C=C/c1ccncc1-c1ccc2cccnc2c1)N1CCOCC1` ) has inhibition equal to 33

inhibition recorded for this molecule, `CNC(=O)/C=C/c1ccncc1-c1ccc2cccnc2c1` , is 82

// `O=C(O)/C=C/c1ccncc1-c1ccc2cc[nH]c2c1` : inhibition value = 103

Entry `CCOC(=O)/C=C/c1ccncc1-c1ccc2c(ccn2C)c1` , inhibition reported as 100

***
Noted for `CN1CCN(C(=O)/C=C/c2ccncc2-c2ccc(F)cc2)CC1` : its inhibition reads 84

The molecule identified as `COC(=O)CCc1ccncc1-c1ccc2ccccc2c1` registered its inhibition at 98

The molecule listed as `O=C(O)[C@@H]1CCCN1C(=O)/C=C/c1ccncc1-c1ccc2ccccc2c1` shows inhibition equal to 67

Measured inhibition, `Cn1ccc2cc(-c3cnccc3/C=C/C(=O)O)ccc21` : 102

Summary for this molecule, `NC(=O)/C=C/c1ccncc1Br` : inhibition is 81

* * *

Experiment: Tmax in ICR mouse at 150 mg/kg, po measured after 24 hrs by LC-MS/MS analysis
Format: ADME, organism-based
Conditions: in vivo
Measurement Name: Tmax (min)
Give a bare numeral; the unit min is implied.

Item: `COC(=O)/C=C/c1ccncc1-c1ccc2ccccc2c1` | Tmax: 34.2

* * *

Test system: MDA-MB-231
Test: Antiproliferative activity against human MDA-MB-231 cells assessed as inhibition of cell growth measured after 72 hrs by SRB assay
Assay type: functional
# GI50 per entry

Looking up `Cn1ccc2cc(-c3cnccc3/C=C/C(=O)O)ccc21` , I found its GI50 recorded as > 10 µM

`CCOC(=O)/C=C/c1ccncc1-c1ccc2cc[nH]c2c1` has a reported GI50 of 7.98 µM

`NNC(=O)CCc1ccncc1-c1ccc2ccccc2c1` yielded GI50 of > 10 µM

Further cases:
The compound `CNC(=O)/C=C/c1ccncc1-c1ccc2c(ccn2C)c1` showed GI50 equal to 8.55 µM

compound `CN1CCN(C(=O)/C=C/c2ccncc2-c2ccc3ccccc3c2)CC1` , GI50 observed: > 10 µM

# compound `NC(=O)/C=C/c1ccncc1-c1ccc2ccccc2c1` ; its GI50 = > 10 µM

// recorded GI50 for `CNC(=O)/C=C/c1ccncc1-c1ccc2cc[nH]c2c1` : 7.68 µM

# compound `O=C(O)/C=C/c1ccncc1-c1ccc2[nH]ccc2c1` ; its GI50 = > 10 µM

`O=C(/C=C/c1ccncc1-c1ccc2ccccc2c1)N1CCOCC1` has a reported GI50 of 8.98 µM

Entry under test: `CCOC(=O)/C=C/c1ccncc1-c1ccc2c(ccn2C)c1` . Its GI50 was 10.2 µM

Record summary for CNC(=O)c1cc(Oc2ccc(NC(=O)Nc3ccc(Cl)c(C(F)(F)F)c3)cc2)ccn1 [SORAFENIB] : reported GI50 = 4.13 µM

For this compound ( `CCOC(=O)/C=C/c1ccncc1-c1ccc2ccccc2c1` ), measured GI50 is 8.09 µM

The value of GI50 measured for the compound `CCOC(=O)/C=C/c1ccncc1-c1ccc2[nH]ccc2c1` turned out to be > 10 µM
